Tested on: Plasmodium falciparum
ASSAY_EXPLANATION: Antimalarial activity after 48 hrs against chloroquine-sensitive Plasmodium falciparum Nigerian by [3H]hypoxanthine uptake
Assay type: functional, organism-based
MEASURED_PROPERTY: IC50 (µM)

A. CO/N=C(/N)CCCCCCCCCCCCC(=N)NOC
B. N#Cc1nc(CCCCCCCCCCCCc2noc(C#N)n2)no1
In: Select one: A or B . Criterion: greater recorded IC50. // return label of chosen record
Out: B

1. CC(=O)O/N=C(/N)CCCCCCCCCCCCC(=N)NOC(C)=O
2. O=c1[nH]c(CCCCCCCCCCCCc2noc(=O)[nH]2)no1
3. CS(=O)(=O)O/N=C(/N)CCCCCCCCCCCCC(=N)NOS(C)(=O)=O
In: Sequence the entries by IC50, beginning with the highest number. Write the labels, ordered according to the request.
Out: 2, 1, 3
